test_system: Mtb FtsZ (Mycobacterium tuberculosis)
Sequence (P9WN95 whole entry): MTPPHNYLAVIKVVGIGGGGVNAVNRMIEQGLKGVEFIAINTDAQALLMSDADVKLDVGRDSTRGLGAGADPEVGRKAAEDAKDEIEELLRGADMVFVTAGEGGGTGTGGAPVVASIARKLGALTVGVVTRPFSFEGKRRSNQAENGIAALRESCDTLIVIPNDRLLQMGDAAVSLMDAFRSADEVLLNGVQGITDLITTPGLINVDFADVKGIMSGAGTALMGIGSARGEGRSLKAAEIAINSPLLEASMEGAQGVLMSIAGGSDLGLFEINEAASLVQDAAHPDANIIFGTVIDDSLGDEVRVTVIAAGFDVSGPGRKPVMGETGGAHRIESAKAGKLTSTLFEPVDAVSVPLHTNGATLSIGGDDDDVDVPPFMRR
pIC50: −log10 of the molar value.
quantity_name: pIC50

Q: Under Mtb FtsZ (Mycobacterium tuberculosis): report pIC50 of "CCCOc1ccc(N(C)c2cc(C)nc3ccc(Cl)cc23)cc1" .
Ans: < 4.00

Each recorded value in this set is attributed to paper PMC3686551.
